Source: patent US8138168B1

Here the recorded pIC50 is given for each entry.
targetOrTestSystem: Recombinant human renin (Homo sapiens, UniProt P00797)
Construct: isolate the active form (residues 67-406); made in house; host or cells: FreeStyle 293-F cells (transient expression of pcDNA3.1(+)/hREN)
Sequence (P00797 67-406): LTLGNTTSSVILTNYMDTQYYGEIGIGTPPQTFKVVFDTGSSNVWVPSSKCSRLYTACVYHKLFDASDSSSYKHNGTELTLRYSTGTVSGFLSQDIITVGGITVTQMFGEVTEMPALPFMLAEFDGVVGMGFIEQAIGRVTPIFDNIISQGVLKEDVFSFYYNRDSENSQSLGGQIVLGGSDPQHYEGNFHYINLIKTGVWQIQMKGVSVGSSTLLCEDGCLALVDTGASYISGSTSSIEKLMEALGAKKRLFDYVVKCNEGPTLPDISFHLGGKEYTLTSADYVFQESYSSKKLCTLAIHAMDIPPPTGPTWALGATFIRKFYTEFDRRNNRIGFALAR
testName: In vitro enzymatic activity assay of renin inhibitors (fluorogenic peptide substrate)
Assay type: biochemical
conditionSet: read-out: IC50 of Exemplified Compounds Against Renin
pIC50: −log10 of the molar value.

INSERT INTO results (compound, reading) VALUES
  ('COCCCn1c(C2CCCN(C(=O)CC(N)Cc3ccc4ccccc4c3)C2)nc2ccc(=O)[nH]c21 (stereo not shown)', '< 6.00'),
  ('COCCCn1c([C@@H]2CCCN(C(=O)[C@@H]3CN(c4cccc(C#N)c4)C[C@H]3N)C2)nc2ccccc21', '6.00 to 7.00'),
  ('COCCCn1c([C@@H]2CCCN(C(=O)C[C@H](N)Cc3ccc(-c4ccc5c(c4)CCO5)cc3)C2)nc2c(F)cccc21', '> 7.00'),
  ('N[C@@H](CC(=O)N1CCCC(c2nc3ccccc3[nH]2)C1)Cc1ccc(Br)cc1 (stereo partly shown)', '< 6.00'),
  ('COCCCn1c([C@@H]2CCCN(C(=O)[C@@H]3CN(S(=O)(=O)c4ccc(C#N)cc4Cl)C[C@H]3N)C2)nc2ccccc21', '< 6.00'),
  ('COC(=O)Nc1ccc(-c2ccc(C[C@@H](N)CC(=O)N3CCC[C@@H](c4nc5ccccc5n4CCNC(C)=O)C3)cc2)cc1', '> 7.00');

# next compound below
Q: # get_value(readout='pIC50', item= COCCCn1c([C@@H]2CCCN(C(=O)C[C@H](N)Cc3ccc(-c4ccc5[nH]nc(N)c5c4)cc3)C2)nc2c(C)cccc21 )
Ans: > 7.00
